Data origin: PubChem BioAssay (NCI)

- System: ACHN renal
- Assay procedure: NCI tumour cell line growth inhibition, 48 h
Reported property: TGI

>>> result_value("COc1cc2c[n+](C)c3c4ccccc4ccc3c2cc1OC (tested in a mixture with another compound)")
"> 100 µM"
>>> result_value("C1OC1CO[C@@H]1CO[C@H]2[C@@H]1OC[C@H]2OCC1CO1 (some centres undefined)")
"> 100 µM"
>>> result_value("COC(=O)/C=C1\\CCC(C)(C(=O)NS(=O)(=O)c2ccc(C)cc2)C1(C)C (centres undefined)")
"> 100 µM"
>>> result_value("COC(=O)/C=C(/C(=O)OC)c1c(C)c(C)c2c(C)cc(C)cc(C)c1-2")
"> 100 µM"
>>> result_value("CCOC(=O)/C=C/C(C(=O)/C=C/c1ccc(O)c(OC)c1)=C(O)\\C=C\\c1ccc(O)c(OC)c1")
"6.25 µM"
>>> result_value("C#CC(F)(F)[C@]1(O)CC[C@H]2[C@@H]3CCC4=CC(=O)CCC4=C3[C@@H](c3ccc(C(C)=O)cc3)C[C@@]21C")
"97 µM"
>>> result_value("C#Cc1c(C(N)=O)ncn1C1OC(COP(=O)(OCc2ccc([N+](=O)[O-])o2)N(C)CCCCCl)C(O)C1O (centres undefined)")
"> 100 µM"
>>> result_value("COC(=O)C1(F)C(=O)NC(=O)NC1O (centres undefined)")
"> 100 µM"
>>> result_value("O=C(CCl)N1c2ccccc2Sc2ccc3ccccc3c21")
"2.01 µM"
>>> result_value("O=c1c(C=Nc2ccc([N+](=O)[O-])cc2)c(O)n(-c2ccccc2)c(=O)n1-c1ccccc1")
"> 100 µM"
>>> result_value("C=C(c1ccc(C(=O)N(C)c2ccccc2N)cc1)C(C)N1C(=O)[C@H]2CCCN2C(=O)c2ccccc21 (some centres undefined)")
"> 100 µM"
>>> result_value("[N-]=[N+]=CC(=O)OCC1SCCCS1")
"> 100 µM"
>>> result_value("Nc1ccccc1N/C=C\\C(=O)C(Cl)(Cl)Cl")
"35.1 µM"
>>> result_value("CCCCOC(=O)NC(=O)c1cn(CCSCCOC(=O)NCCCCCCNC(=O)OCCSCCn2cc(C(=O)NC(=O)OCCCC)c(=O)[nH]c2=O)c(=O)[nH]c1=O")
"> 100 µM"
>>> result_value("O=C(CC(=O)N1N=C(N2c3ccccc3Sc3ccccc32)CC1c1ccccc1)Nc1ccc(Cl)cc1 (centres undefined)")
"> 100 µM"
>>> result_value("CNC(=O)c1cc(NC(=O)N(CCC#N)CCN(C(=O)N[C@@H](Cc2ccccc2)C(=O)N[C@@H](CC(C)C)C(=O)NC)c2ccccc2)ccc1OC")
"> 100 µM"
>>> result_value("O=Nc1ccc2ccccc2c1O")
"18.4 µM"
>>> result_value("O=C(Nc1ccc(Cl)cc1)c1cc(-c2ccc(Cl)cc2)c2sc(=O)[nH]c2n1")
"8.89 µM"
>>> result_value("COc1cc(CC2c3cc(OC)c(OC)cc3CCN2C)c(Oc2cc3c(cc2OC)-c2c(O)c(OC)cc4c2C(C3)N(C)CC4)cc1OC (centres undefined)")
"49.8 µM"
>>> result_value("O=C1C(=O)N(c2ccc(Cl)cc2Cl)C(=O)C(=O)C1c1nc2ccccc2o1")
"> 100 µM"
>>> result_value("COc1cc(/C=C2\\CCC(CN(C)C)C2=O)ccc1OC(=O)c1ccccc1 (centres undefined)")
"28.7 µM"
>>> result_value("COC(=O)c1cc(C#N)[nH]c1-c1ccc(C)s1")
"> 100 µM"
>>> result_value("O=C(CCCCCCCCC(=O)N1C(=O)CC(=O)N(c2cccc(Cl)c2)C1=S)N1C(=O)CC(=O)N(c2cccc(Cl)c2)C1=S")
"> 100 µM"
>>> result_value("CC(C)(C)C1(COC(=O)c2ccc(N)cc2)COC1")
"> 100 µM"
>>> result_value("Cc1nc2ccc(S(=O)(=O)O)cc2c(=O)n1-c1ccc(C(=O)NN2C(=O)C(Cl)C2c2ccccc2O)cc1 (centres undefined)")
"> 100 µM"
>>> result_value("c1ccc2c(c1)nc(NC1CCCC1)c1[nH]c(C3CCCC3)nc12")
"> 75.6 µM"
>>> result_value("COc1cc2c(cc1O)CC13CCC(=O)N1CCc1cc(OC)c(O)c-2c13 (centres undefined)")
"> 68.1 µM"
>>> result_value("Cc1ccc(C(C2C(=O)N(C)C(=O)N(C)C2=O)C(F)(F)C(=O)N(C)C)cc1 (centres undefined)")
"> 100 µM"
>>> result_value("O=C1c2c(n(Cc3ccccc3)c(=O)n2Cc2ccccc2)C(=O)N1Cc1ccccc1")
"> 100 µM"
>>> result_value("O=C(c1ccco1)c1c(C(F)(F)F)n([O-])c2ccccc2[n+]1=O")
"4.21 µM"
>>> result_value("NCCNc1cccc2ccccc12")
"> 100 µM"
>>> result_value("NC(N)=NNC(=O)CCCCCCCC(=O)NN=C(N)N")
"> 100 µM"
>>> result_value("O=C1C=C(Br)c2c(Br)sc(Br)c21")
"15.3 µM"
>>> result_value("CCN(CCCl)CCCNc1c2ccccc2nc2ccc(OC)cc12")
"1.34 µM"
